Test System: adenosine receptors (Rattus norvegicus, UniProt P30543)
Sequence (P30543 whole entry): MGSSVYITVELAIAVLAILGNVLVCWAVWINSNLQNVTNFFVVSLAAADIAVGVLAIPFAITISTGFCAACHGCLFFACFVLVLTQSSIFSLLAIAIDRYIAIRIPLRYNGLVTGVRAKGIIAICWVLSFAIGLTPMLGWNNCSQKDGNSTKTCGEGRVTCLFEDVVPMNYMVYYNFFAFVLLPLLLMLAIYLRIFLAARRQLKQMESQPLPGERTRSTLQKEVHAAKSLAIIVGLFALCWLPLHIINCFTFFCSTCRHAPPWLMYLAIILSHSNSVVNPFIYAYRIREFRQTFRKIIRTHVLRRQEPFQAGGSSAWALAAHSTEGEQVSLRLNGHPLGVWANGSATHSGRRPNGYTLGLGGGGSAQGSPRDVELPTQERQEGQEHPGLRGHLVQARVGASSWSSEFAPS
Protocol Description: EC50 at adenosine receptors measured at pH 7.4
Property Measured: pEC50
Give bare numbers, as −log10 of the molar value.

Documented pEC50 of COc1nc(N)c2ncn([C@@H]3O[C@H](CO)[C@@H](O)[C@H]3O)c2n1 : 5.52
